experiment: NCI Yeast Anticancer Drug Screen. Data for the wt1 strain (AID 149)
details: S. cerevisiae wt1 strain (SPY 50644) growth inhibition; at 100.0 µM
About 79,000 compounds went through this panel and 15% of them were active in at least one assay; those are over-represented in the sample as a whole. Activity calls are given as the source filed them. No stated cut-off is given here; in the data, active means growth inhibition above about 70%; inactive means the rest.
Classes used: YES = active, NO = inactive

{"compound": "Nc1nc(-c2ccccc2)c(-c2ccccc2)[se]1", "labelClass": "NO"}
{"compound": "CCCCCCCCCC[Se]C#N", "labelClass": "NO"}
{"compound": "COC(=O)C1=C(C(=O)OC)SC2(S1)C(C(=O)OC)=C(C(=O)OC)Sc1c2ssc1=O", "labelClass": "YES"}
{"compound": "CCCCCNC(=O)c1c(O)[nH]c(=S)[nH]c1=O", "labelClass": "YES"}
{"compound": "CCC(=O)OC1CCn2c1nc1c2C(=O)C(C)=C(N2CC2)C1=O (stereo not given)", "labelClass": "NO"}
{"compound": "CCCN(CCC)c1c([N+](=O)[O-])cc(S(N)(=O)=O)cc1[N+](=O)[O-]", "labelClass": "NO"}
{"compound": "Oc1ccc2nc3ccccc3nc2c1", "labelClass": "YES"}
{"compound": "C[CH2][Sn]1([CH2]C)[O]C2C(O)OC(CO)C(O)C2[O]1 (stereo not given)", "labelClass": "NO"}
{"compound": "CCOC(=O)C1=C(C(=O)OCC)C2(c3ccccc3)N(O1)c1ccccc1C2(C)C (stereo not given)", "labelClass": "NO"}
{"compound": "O=C1OC2C(O1)C1(Cl)C(Cl)=C(Cl)C2(Cl)C1(Cl)Cl (stereo not given)", "labelClass": "NO"}
{"compound": "C[C@]12CCC3[C@@H](CC[C@@H]4c5nonc5CC[C@]34C)C1CCC2=O (stereo not given in full)", "labelClass": "NO"}
{"compound": "COC(=O)C1C2c3ccccc3C(c3ccccc32)C1C(=O)OC (stereo not given)", "labelClass": "NO"}
{"compound": "Nc1nc(N)c2c(Cl)c(CNc3ccc(C(=O)NC(CC(=O)O)C(=O)O)cc3)ccc2n1 (stereo not given)", "labelClass": "YES"}
{"compound": "C[C@@]12CCC(=O)C=C1CC[C@H]1C2=CC[C@]2(C)C1CC[C@@]2(C)O (stereo not given in full)", "labelClass": "YES"}
{"compound": "OC1CCCC2CCC[N-]C12.OC1CCCC2CCC[N-]C12.[O]=[V][OH] (stereo not given)", "labelClass": "YES"}
